- protocol-notes: in vivo
- Design: species or system nude mice
- condition-context: nude, mouse, total radioactivity, Tumor-to-tissue ratio Stomach
*1 amine or outer side, *2 acyl side, *3 side chain or, on linkers, in order; H or OH if unused. Where a SMILES comes first, the peptide text is derived from it. Side-chain parts run from the residue outwards. [ ]: non-standard residue; d: D form. The star is where a group is joined. DOTA = O=C(O)CN1CCN(CC(=O)O)CCN(CC(=O)*)CCN(CC(=O)O)CC1; NH(2-(imidazol-4-yl)ethyl) = c1ncc(CCN*)[nH]1; Suc = O=C(CCC(=O)[*:2])[*:1]
observed-property: tissue to tissue ratio at 3 h

Give the measured tissue to tissue ratio at 3 h for NC(=O)[C@H](CCCCNC(=O)CNC(=O)CCC(=O)NCCc1cnc[nH]1)NC(=O)[C@@H](Cc1ccc(O)cc1)NC(=O)[C@H](CCCCNC(=O)CNC(=O)CCC(=O)NCCc1cnc[nH]1)NC(=O)[C@H](Cc1ccccc1)NC(=O)CN1CCN(CC(=O)O)CCN(CC(=O)O)CCN(CC(=O)O)CC1 [Ga-67-IMP 241, metal not drawn] ({DOTA}-FK([Gly-Suc-NH(2-(imidazol-4-yl)ethyl)])[dY]K([Gly-Suc-NH(2-(imidazol-4-yl)ethyl)])-NH2) 73.6
